Below, each of the binders is paired with its reported kon value.
experimental target: T1, human Nectin-4 extracellular antigen hNectin-4-His (human, UniProt Q96NY8 32-349)
T1 construct: C-terminal 8xHis tag included
T1 sequence: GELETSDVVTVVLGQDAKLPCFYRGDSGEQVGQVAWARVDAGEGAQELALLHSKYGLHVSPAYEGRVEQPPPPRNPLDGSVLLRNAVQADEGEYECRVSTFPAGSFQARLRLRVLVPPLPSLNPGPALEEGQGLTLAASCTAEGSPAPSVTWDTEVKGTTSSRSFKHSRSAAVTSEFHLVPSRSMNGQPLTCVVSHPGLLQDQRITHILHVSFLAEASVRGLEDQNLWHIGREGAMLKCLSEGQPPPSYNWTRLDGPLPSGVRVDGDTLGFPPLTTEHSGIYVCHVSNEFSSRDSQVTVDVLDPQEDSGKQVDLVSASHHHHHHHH
assay name: SPR, antibody on Protein A chip, 1:1 fit
Numbers only here, please. The scale is M⁻¹ s⁻¹.

Below: 4 binders and their reported kon.
binder	readout type	value reported
antibody 1F3-2B9 (antibody, human IgG1, kappa, V domains shown) VH: EVQLVESGGGLVQPGGSLRLSCAASGFNFDSYAMSWVRQAPGKGLEWVSGIKPHTDDIYYADSVKGRFTISRDNSKNTLYLQMNSLRAEDTAVYYCARAELLAFDVYTASDYWGQGTLVTVSS VL: DIQMTQSPSSLSASVGDRVTITCRASQGISSYLAWYQQKPGKAPKLLIYAASSLQSGVPSRFSGSGSGTDFTLTISSLQPEDFATYYCQQHYTTPPTFGQGTKVEIKR	kon	1.82e+06
antibody 1G8-2C6 (antibody, human IgG1, kappa, V domains shown) VH: EVQLVESGGGLVQPGGSLRLSCAASGDNFSSYAMSWVRQAPGKGLEWVSRIYGSDSTPDYADSVKGRFTISRDNSKNTLYLQMNSLRAEDTAVYYCARQTEDRSYGYDLDYWGQGTLVTVSS VL: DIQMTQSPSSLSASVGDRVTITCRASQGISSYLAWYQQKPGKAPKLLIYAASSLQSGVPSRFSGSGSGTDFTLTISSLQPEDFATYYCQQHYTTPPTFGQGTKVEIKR	kon	734000
antibody 1F3-2E8 (antibody, human IgG1, kappa, V domains shown) VH: EVQLVESGGGLVQPGGSLRLSCAASGYSFSDYGMSWVRQAPGKGLEWVSWISPSKGSASYADSVKGRFTISRDNSKNTLYLQMNSLRAEDTAVYYCARAELLAFDVYTASDYWGQGTLVTVSS VL: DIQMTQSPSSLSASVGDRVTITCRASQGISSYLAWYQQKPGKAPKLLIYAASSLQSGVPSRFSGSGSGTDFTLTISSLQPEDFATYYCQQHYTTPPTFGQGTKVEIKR	kon	1.17e+06
antibody 1G8-2B3 (antibody, human IgG1, kappa, V domains shown) VH: EVQLVESGGGLVQPGGSLRLSCAASGYNFTTSAMSWVRQAPGKGLEWVSRIYQDSSTTDYADSVKGRFTISRDNSKNTLYLQMNSLRAEDTAVYYCARQTEDRSYGYDLDYWGQGTLVTVSS VL: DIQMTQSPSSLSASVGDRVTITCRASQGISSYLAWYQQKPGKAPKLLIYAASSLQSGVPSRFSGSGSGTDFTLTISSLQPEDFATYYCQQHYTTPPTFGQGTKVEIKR	kon	742000

Please look at the following binder next.
QUERY: Output kon of antibody 1G8-1G3 (antibody, human IgG1, kappa, V domains shown) VH: EVQLVESGGGLVQPGGSLRLSCAASGFNFGTYAMSWVRQAPGKGLEWVSRISGISAGTNYADSVKGRFTISRDNSKNTLYLQMNSLRAEDTAVYYCARQTEDRSYGYDLDYWGQGTLVTVSS VL: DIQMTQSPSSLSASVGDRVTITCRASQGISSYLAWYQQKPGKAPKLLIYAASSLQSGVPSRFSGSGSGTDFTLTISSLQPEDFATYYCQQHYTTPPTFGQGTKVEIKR
RESULT: 471000
